# target.entity: pooled human IgG (human IgG1, 2, 3 and 4)
measured.attribute: Enzyme Activity Endpoint Assay: Fc
Answers without a unit are incomplete; give the number and then its unit.

Form field: reported Enzyme Activity Endpoint Assay: Fc of PRT-588 (protein) MRNQTTTYSEVTPSHITSVWTKGVTPPEQFIQGEDVFHAPYIANQGWYDITKTFNGKDDLLCGAATAGNMLHWWFDQNKEQIENYLKKHPEKQKIMFNNEEMFDLREAINTKDSQTDSALFSYFKDKAFPNLSARRLGVMPDHVLDMFINGYYLNVGNTDKTDVNRGTKDLRGGIFDAVFTRGDQSKLLTARHDLKNKTLKEISDLIKQELTEGKALALSHTYANVRINHVINLWGADFDAEGNLEAIYVTDSDSNASIGMKKYYVGVNSAGKVAISAKKIEGDNIGAQVLGLFTLSTGQDIWQQTNLEHHHHHH 361 ng/µL

PRT-555 (protein) MANQEIRYSEETPKTITSVWTKGVTPPTDFIKNEDVLHAPYVANQGWYDITKTFNGKDDLLCGAATAGNMLHWWFDQNKEEIERYLKKHPEKQKINFNGEQMFDVKEAIDTKDSQTDSKLFEYFKDKAFPYLSTKHLGVFPDHVIDMFINGYRLSLTNHGPTPVKRGTKDPRGGIFDAVFTRGDQSKLLTSRHDFKEKTLNEISDLIKQELQEGKALGLSHTYANVRINHVINLWGADFDSEGNLEAIYVTDSDSNASIGMKKYYVGVNSAGKVAISAKEIEDDNIGAQVLGLFTLSTGKDIWEQTNLEHHHHHH ? 475 ng/µL
